# METHOD SUMMARY: Multiple-dose oral pharmacokinetics of indinavir (plasma) with co-administered Sophora preparations
# Format: in vivo, Male Wistar rats
# MEASUREMENT CONDITIONS: male, Wistar, rat, po, 40 mg/kg, indinavir 40 mg/kg orally, multiple dosage, with Sophora extract 0.316 g/kg/day, mean ± S.E.M., read-out: AUC0-∞ of indinavir
MEASURE NAME: AUC(0-inf)

# LINE NOTATION, READING
rows = [
    ("CC(C)(C)NC(=O)[C@@H]1CN(Cc2cccnc2)CCN1C[C@@H](O)C[C@@H](Cc1ccccc1)C(=O)N[C@H]1c2ccccc2C[C@H]1O", "7230 ng·h/mL"),
]

---

# METHOD SUMMARY: Multiple-dose oral pharmacokinetics of indinavir (plasma) with co-administered Sophora preparations
# Format: in vivo, Male Wistar rats
# MEASUREMENT CONDITIONS: male, Wistar, rat, po, 40 mg/kg, oral, read-out: T max of indinavir determined in our study
MEASURE NAME: Tmax

# LINE NOTATION, MEASURE NAME, READING
measured = [
    ("CC(C)(C)NC(=O)[C@@H]1CN(Cc2cccnc2)CCN1C[C@@H](O)C[C@@H](Cc1ccccc1)C(=O)N[C@H]1c2ccccc2C[C@H]1O", "Tmax", "30 to 37 min"),
]

---

# METHOD SUMMARY: Multiple-dose oral pharmacokinetics of indinavir (plasma) with co-administered Sophora preparations
# Assay type: in vivo, Male Wistar rats
# MEASUREMENT CONDITIONS: male, Wistar, rat, po, 40 mg/kg, indinavir 40 mg/kg orally, multiple dosage, with EA fraction 0.164 g/kg/day, mean ± S.E.M., read-out: AUC0-∞ of indinavir

# COMPOUND, AUC(0-inf) (ng·h/mL)
rows = [
    ("CC(C)(C)NC(=O)[C@@H]1CN(Cc2cccnc2)CCN1C[C@@H](O)C[C@@H](Cc1ccccc1)C(=O)N[C@H]1c2ccccc2C[C@H]1O [indinavir]", 12300),
]

---

# METHOD SUMMARY: Multiple-dose oral pharmacokinetics of indinavir (plasma) with co-administered Sophora preparations
# Format: in vivo, Male Wistar rats
# MEASUREMENT CONDITIONS: male, Wistar, rat, po, 40 mg/kg, indinavir 40 mg/kg orally, multiple dosage, with vehicle control, mean ± S.E.M.

# LINE NOTATION, CL/F
measured = [
    ("CC(C)(C)NC(=O)[C@@H]1CN(Cc2cccnc2)CCN1C[C@@H](O)C[C@@H](Cc1ccccc1)C(=O)N[C@H]1c2ccccc2C[C@H]1O", "42.8 mL/min/kg"),
]

---

# METHOD SUMMARY: Multiple-dose oral pharmacokinetics of indinavir (plasma) with co-administered Sophora preparations
# Format: in vivo, Male Wistar rats
# MEASUREMENT CONDITIONS: male, Wistar, rat, po, 40 mg/kg, indinavir 40 mg/kg orally, multiple dosage, with EA fraction 0.164 g/kg/day, mean ± S.E.M.

# LINE NOTATION, Cmax / ng/mL
measured = [
    ("CC(C)(C)NC(=O)[C@@H]1CN(Cc2cccnc2)CCN1C[C@@H](O)C[C@@H](Cc1ccccc1)C(=O)N[C@H]1c2ccccc2C[C@H]1O", 8410),
]

---

# METHOD SUMMARY: Multiple-dose oral pharmacokinetics of indinavir (plasma) with co-administered Sophora preparations
# Format: in vivo, Male Wistar rats
# MEASUREMENT CONDITIONS: male, Wistar, rat, po, 40 mg/kg, indinavir 40 mg/kg orally, multiple dosage, with Sophora extract 0.316 g/kg/day, mean ± S.E.M.
MEASURE NAME: Cmax (ng/mL)

# LINE NOTATION, READING
records = [
    ("CC(C)(C)NC(=O)[C@@H]1CN(Cc2cccnc2)CCN1C[C@@H](O)C[C@@H](Cc1ccccc1)C(=O)N[C@H]1c2ccccc2C[C@H]1O", 7170),
]

---

# METHOD SUMMARY: Multiple-dose oral pharmacokinetics of indinavir (plasma) with co-administered Sophora preparations
# Format: in vivo, Male Wistar rats
# MEASUREMENT CONDITIONS: male, Wistar, rat, po, 40 mg/kg, indinavir 40 mg/kg orally, multiple dosage, with Sophora extract 0.316 g/kg/day, mean ± S.E.M.
MEASURE NAME: CL/F (L/h/kg)

# MOLECULE, READING
data = [
    ("CC(C)(C)NC(=O)[C@@H]1CN(Cc2cccnc2)CCN1C[C@@H](O)C[C@@H](Cc1ccccc1)C(=O)N[C@H]1c2ccccc2C[C@H]1O [indinavir]", 6.05),
]

---

# METHOD SUMMARY: Multiple-dose oral pharmacokinetics of indinavir (plasma) with co-administered Sophora preparations
# Type: in vivo, Male Wistar rats
# MEASUREMENT CONDITIONS: male, Wistar, rat, po, 40 mg/kg, indinavir 40 mg/kg orally, multiple dosage, with Oxymatrine (capsule) 90 mg/kg/day, mean ± S.E.M., read-out: T max of indinavir
MEASURE NAME: Tmax

# LINE NOTATION, MEASURE NAME, READING
measured = [
    ("CC(C)(C)NC(=O)[C@@H]1CN(Cc2cccnc2)CCN1C[C@@H](O)C[C@@H](Cc1ccccc1)C(=O)N[C@H]1c2ccccc2C[C@H]1O", "Tmax", "25.2 min"),
]

---

# METHOD SUMMARY: Multiple-dose oral pharmacokinetics of indinavir (plasma) with co-administered Sophora preparations
# Type: in vivo, Male Wistar rats
# MEASUREMENT CONDITIONS: male, Wistar, rat, po, 40 mg/kg, indinavir 40 mg/kg orally, multiple dosage, with Sophora extract 0.316 g/kg/day, mean ± S.E.M., read-out: T max of indinavir

# LINE NOTATION, Tmax / min
data = [
    ("CC(C)(C)NC(=O)[C@@H]1CN(Cc2cccnc2)CCN1C[C@@H](O)C[C@@H](Cc1ccccc1)C(=O)N[C@H]1c2ccccc2C[C@H]1O", 37.2),
]

---

# METHOD SUMMARY: Multiple-dose oral pharmacokinetics of indinavir (plasma) with co-administered Sophora preparations
# Format: in vivo, Male Wistar rats
# MEASUREMENT CONDITIONS: male, Wistar, rat, po, 40 mg/kg, indinavir 40 mg/kg orally, multiple dosage, with Oxymatrine (capsule) 90 mg/kg/day, mean ± S.E.M., read-out: AUC0-∞ of indinavir
MEASURE NAME: AUC(0-inf) (ng·h/mL)

# LINE NOTATION, MEASURE NAME, READING
rows = [
    ("CC(C)(C)NC(=O)[C@@H]1CN(Cc2cccnc2)CCN1C[C@@H](O)C[C@@H](Cc1ccccc1)C(=O)N[C@H]1c2ccccc2C[C@H]1O", "AUC(0-inf)", 5290),
]

---

# METHOD SUMMARY: Multiple-dose oral pharmacokinetics of indinavir (plasma) with co-administered Sophora preparations
# Format: in vivo, Male Wistar rats
# MEASUREMENT CONDITIONS: male, Wistar, rat, po, 40 mg/kg, indinavir 40 mg/kg orally, multiple dosage, with vehicle control, mean ± S.E.M., read-out: T max of indinavir
MEASURE NAME: Tmax (min)

# LINE NOTATION, READING
measured = [
    ("CC(C)(C)NC(=O)[C@@H]1CN(Cc2cccnc2)CCN1C[C@@H](O)C[C@@H](Cc1ccccc1)C(=O)N[C@H]1c2ccccc2C[C@H]1O", 30),
]

---

# METHOD SUMMARY: Multiple-dose oral pharmacokinetics of indinavir (plasma) with co-administered Sophora preparations
# Assay type: in vivo, Male Wistar rats
# MEASUREMENT CONDITIONS: male, Wistar, rat, po, 40 mg/kg, indinavir 40 mg/kg orally, multiple dosage, with Oxymatrine (capsule) 90 mg/kg/day, mean ± S.E.M.
MEASURE NAME: CL/F (mL/min/kg)

# LINE NOTATION, READING
measured = [
    ("CC(C)(C)NC(=O)[C@@H]1CN(Cc2cccnc2)CCN1C[C@@H](O)C[C@@H](Cc1ccccc1)C(=O)N[C@H]1c2ccccc2C[C@H]1O", 159),
]

---

# METHOD SUMMARY: Multiple-dose oral pharmacokinetics of indinavir (plasma) with co-administered Sophora preparations
# Format: in vivo, Male Wistar rats
# MEASUREMENT CONDITIONS: male, Wistar, rat, po, 40 mg/kg, indinavir 40 mg/kg orally, multiple dosage, with Sophora extract 1.26 g/kg/day, mean ± S.E.M., read-out: AUC0-∞ of indinavir

# LINE NOTATION, AUC(0-inf) [ng·h/mL]
data = [
    ("CC(C)(C)NC(=O)[C@@H]1CN(Cc2cccnc2)CCN1C[C@@H](O)C[C@@H](Cc1ccccc1)C(=O)N[C@H]1c2ccccc2C[C@H]1O", 2780),
]

---

# METHOD SUMMARY: Multiple-dose oral pharmacokinetics of indinavir (plasma) with co-administered Sophora preparations
# Assay type: in vivo, Male Wistar rats
# MEASUREMENT CONDITIONS: male, Wistar, rat, oral, 40 mg/kg, day 8, before last indinavir dose, detectable, below limit of quantification, read-out: Plasma indinavir concentration at time zero

# MOLECULE, C0
records = [
    ("CC(C)(C)NC(=O)[C@@H]1CN(Cc2cccnc2)CCN1C[C@@H](O)C[C@@H](Cc1ccccc1)C(=O)N[C@H]1c2ccccc2C[C@H]1O [indinavir]", "< 50 ng/mL"),
]
